# SYSTEM NAME: Rac-1 (Homo sapiens (Human))
# PROTOCOL: Rac inhibition assay (labeled GTP)
# Type: binding
# SETUP CONDITIONS: read-out: Rac-1 % Inh.
Parameter inhibition at 20 µM: see the listing below.

>  <COMPOUND>
O=C(NCCc1cccnc1)c1csc2nc(-c3ccccn3)nc(N3CCOCC3)c12 [drawing 3633]

>  <inhibition at 20 µM>
51 to 75%

$$$$
>  <COMPOUND>
Nc1nc(-c2ccccn2)nc2c(-c3ccccc3Cl)csc12 [drawing 3707]

>  <inhibition at 20 µM>
25 to 50%

$$$$
>  <COMPOUND>
Cc1sc2c(O)nc(-c3ccccn3)nc2c1C(=O)N1CCN(c2ccccc2)CC1 [drawing 3827]

>  <inhibition at 20 µM>
76 to 100%

$$$$
>  <COMPOUND>
COc1cccc(CC2CN(C(=O)c3csc4c(O)nc(-c5ccccn5)nc34)CCN2)c1 (stereo not shown) [drawing 3702]

>  <inhibition at 20 µM>
76 to 100%

$$$$
>  <COMPOUND>
O=C(c1csc2c(O)nc(-c3ccccn3)nc12)N1CCC(c2cccc(O)c2)C1 (stereo not shown) [drawing 3712]

>  <inhibition at 20 µM>
76 to 100%

$$$$
>  <COMPOUND>
O=C(COCc1ccnc(O)c1)Nc1nc(-c2ccccn2)nc2sccc12 [drawing 3729]

>  <inhibition at 20 µM>
51 to 75%

$$$$
>  <COMPOUND>
Cc1ccccc1C1CN(C(=O)c2csc3c(O)nc(-c4ccccn4)nc23)CCN1 (stereo not shown) [drawing 3664]

>  <inhibition at 20 µM>
76 to 100%

$$$$
>  <COMPOUND>
Oc1nc(-c2ccccn2)nc2c(-c3cc(F)ccc3OC(F)F)csc12 [drawing 3732]

>  <inhibition at 20 µM>
51 to 75%

$$$$
>  <COMPOUND>
COc1nc(-c2ccccn2)nc2c(C3CCCCC3)csc12 [drawing 3798]

>  <inhibition at 20 µM>
1 to 25%

$$$$
>  <COMPOUND>
Oc1nc(-c2ccccn2)nc2c(-c3ccc(OC4CCOC4)cc3)csc12 (stereo not shown) [drawing 3734]

>  <inhibition at 20 µM>
51 to 75%

$$$$
>  <COMPOUND>
COc1cnc(CNC(=O)c2cc3nc(-c4ccccn4)nc(O)c3s2)[nH]c1=O [drawing 3839]

>  <inhibition at 20 µM>
51 to 75%

$$$$
>  <COMPOUND>
Nc1nc(-c2ccccn2)nc2ccsc12 [drawing 3706]

>  <inhibition at 20 µM>
76 to 100%

$$$$
>  <COMPOUND>
Oc1nc(-c2ccccn2)nc2cc(-c3cccc(Br)c3)sc12 [drawing 3882]

>  <inhibition at 20 µM>
1 to 25%

$$$$
>  <COMPOUND>
COc1ccc(-c2csc3c(O)nc(-c4ccccn4)nc23)c(C)c1 [drawing 3753]

>  <inhibition at 20 µM>
76 to 100%

$$$$
>  <COMPOUND>
O=C(CCc1cncnc1)Nc1nc(-c2ccccn2)nc2sccc12 [drawing 3763]

>  <inhibition at 20 µM>
76 to 100%

$$$$
>  <COMPOUND>
O=C(c1csc2c(O)nc(-c3ccccn3)nc12)N1CCOC(c2cccc(Cl)c2)C1 (stereo not shown) [drawing 3659]

>  <inhibition at 20 µM>
1 to 25%

$$$$
